pIC50: −log10 of the molar value.
This section lists pIC50 readings for UniProtKB P00533.
property.measured: pIC50

INSERT INTO assay_data (structure_notation, result) VALUES
  ('C[C@H]1CN(C)Cc2c(c(CN(C)C)nn2CCO)/C=C/c2n[nH]c3ccc(cc23)-c2cnn(C)c2O1', '< 6.00'),
  ('Cc1c2c(nn1CCO)OCCCOc1c(cnn1C)-c1ccc3[nH]nc(c3c1)/C=C/2', '< 6.00'),
  ('Cc1c2c(nn1CC(C)(C)O)OCCCOc1c(cnn1C)-c1ccc3[nH]nc(c3c1)/C=C/2', '< 6.00');

====

Values of IC50 reported for UniProtKB P00533 appear below.
property.measured: IC50 (nM)

INSERT INTO measurements (compound, property_measured, limit_sign, measured_number) VALUES
  ('C[C@H]1CN(C)Cc2c(c(OC3CN(S(C)(=O)=O)C3)nn2CCO)/C=C/c2n[nH]c3ccc(cc23)-c2cnn(C)c2O1', 'IC50', '=', 4.14),
  ('CC(C)Oc1nn(CCO)c2c1/C=C/c1n[nH]c3ccc(cc13)-c1cnn(C)c1O[C@H](C)CN(C(C)C)C2', 'IC50', '=', 90.1),
  ('Cc1nn([C@H]2CN(C)C[C@@H]2O)c2c1/C=C/c1n[nH]c3ccc(cc13)-c1cnn(C)c1OCCCO2 (racemic)', 'IC50', '=', 295),
  ('Cc1c2c(nn1[C@H]1CCNC[C@@H]1O)OCCCOc1c(cnn1C)-c1ccc3[nH]nc(c3c1)/C=C/2 (racemic)', 'IC50', '=', 43.8),
  ('CC(C)Oc1nn(CCO)c2c1/C=C/c1n[nH]c3cc(F)c(cc13)-c1cnn(C)c1O[C@@H]1CCCN(C2)C1', 'IC50', '=', 1280),
  ('Cc1nn(C)c2c1/C=C/c1n[nH]c3ccc(cc13)-c1cnn(C)c1OCCN(C)C2', 'IC50', '=', 543),
  ('Cc1nn([C@H]2CCNC[C@@H]2O)c2c1/C=C/c1n[nH]c3ccc(cc13)-c1cnn(C)c1OCCCO2 (racemic)', 'IC50', '=', 50.8),
  ('CCOc1nn(CCO)c2c1/C=C/c1n[nH]c3ccc(cc13)-c1cnn(C)c1O[C@@H](CC)CN(C)C2', 'IC50', '=', 13.6),
  ('Cc1nn(CCN2CCCC2)c2c1/C=C/c1n[nH]c3ccc(cc13)-c1cnn(C)c1OCCCO2', 'IC50', '=', 1260),
  ('C[C@H]1CN(C)Cc2onc(C3CC3)c2/C=C/c2n[nH]c3ccc(cc23)-c2cnn(C)c2O1', 'IC50', '>', 1000),
  ('CSCn1ncc2c1O[C@@H](C)CN(C(C)C)Cc1c(c(C)nn1C)/C=C/c1n[nH]c3ccc-2cc13', 'IC50', '=', 220),
  ('Cc1nn(CCO)c2c1/C=C/c1n[nH]c3ccc(cc13)-c1cnn(C)c1CN(C)CCO2', 'IC50', '=', 42.7);

====

# experimental.target: EGFR L858R/T790M mutant (Homo sapiens (Human), UniProt P00533, L858R/T790M)
# Sequence (P00533 25-1210 T790M/L858R): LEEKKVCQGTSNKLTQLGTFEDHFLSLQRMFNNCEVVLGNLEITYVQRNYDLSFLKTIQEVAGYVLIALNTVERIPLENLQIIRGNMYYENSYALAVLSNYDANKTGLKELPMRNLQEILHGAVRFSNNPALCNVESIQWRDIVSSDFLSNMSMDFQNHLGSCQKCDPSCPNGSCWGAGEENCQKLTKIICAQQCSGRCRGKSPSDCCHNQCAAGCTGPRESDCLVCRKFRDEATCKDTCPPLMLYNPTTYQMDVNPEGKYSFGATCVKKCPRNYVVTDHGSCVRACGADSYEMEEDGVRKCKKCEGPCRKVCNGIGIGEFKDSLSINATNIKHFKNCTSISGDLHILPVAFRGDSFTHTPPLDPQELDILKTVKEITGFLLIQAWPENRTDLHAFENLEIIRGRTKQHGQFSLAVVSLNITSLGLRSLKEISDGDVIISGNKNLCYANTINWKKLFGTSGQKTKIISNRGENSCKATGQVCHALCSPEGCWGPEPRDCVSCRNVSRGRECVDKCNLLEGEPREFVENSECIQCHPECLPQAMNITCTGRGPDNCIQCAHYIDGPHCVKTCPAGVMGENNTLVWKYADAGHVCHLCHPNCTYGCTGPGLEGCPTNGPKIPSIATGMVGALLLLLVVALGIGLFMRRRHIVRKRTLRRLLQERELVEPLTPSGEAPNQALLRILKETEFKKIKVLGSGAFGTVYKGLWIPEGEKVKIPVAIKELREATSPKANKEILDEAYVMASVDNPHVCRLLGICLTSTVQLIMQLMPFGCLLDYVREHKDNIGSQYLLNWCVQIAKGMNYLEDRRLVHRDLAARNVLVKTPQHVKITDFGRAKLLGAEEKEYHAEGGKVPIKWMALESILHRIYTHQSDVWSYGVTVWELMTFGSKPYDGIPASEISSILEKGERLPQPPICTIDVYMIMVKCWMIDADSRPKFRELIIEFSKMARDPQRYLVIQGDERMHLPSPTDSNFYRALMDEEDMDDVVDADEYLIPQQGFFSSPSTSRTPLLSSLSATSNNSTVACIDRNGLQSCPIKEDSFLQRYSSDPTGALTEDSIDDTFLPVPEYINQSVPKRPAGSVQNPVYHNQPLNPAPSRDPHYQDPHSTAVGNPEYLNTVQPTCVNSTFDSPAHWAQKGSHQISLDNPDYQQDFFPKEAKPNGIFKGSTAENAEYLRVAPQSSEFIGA
# assay.text: HotSpot radiometric kinase assay, EGFR L858R/T790M mutant
# condition.context: 10 μM ATP
# Protocol: Biochemical Assays for Inhibition of Wild-Type and Mutant EGFRs Briefly, specific kinase/substrate pairs along with required cofactors were prepared in reaction buffer; 20 mM Hepes pH 7.5, 10 mM […], 1 mM EGTA, 0.02% Brij35, 0.02 mg/ml BSA, 0.1 mM Na3VO4, 2 mM DTT, 1% DMSO. Compounds were delivered into the reaction, followed […] later by addition of a mixture of ATP (Sigma, St. Louis MO) and ^33P ATP (Perkin Elmer, Waltham MA) to a final concentration of 10 μM. […]
property.measured: IC50

INSERT INTO results (compound, result) VALUES
  ('CC(C)Oc1nn(CCO)c2c1/C=C/c1n[nH]c3ccc(cc13)-c1cnn(C)c1O[C@@H](C)CN(C)C2 [Example 147]', '0.11 nM'),
  ('Cc1c2c(nn1C1CCN(C)C1)OCCN(C)Cc1c(cnn1C)-c1ccc3[nH]nc(c3c1)/C=C/2 (stereo not drawn) [Example 117]', '2.2 nM'),
  ('CCOc1noc2c1/C=C/c1n[nH]c3ccc(cc13)-c1cnn(C)c1O[C@@H](C)CN(C)C2 [Example 183]', '0.65 nM');
